Provenance of the data: the supplement of paper PMC9170038

- Test system: MS2 coat protein
- ASSAY_DETAILS: apparent KD of MS2 coat protein; designed switch direction (-1 OFF switch, 1 ON switch): -1; higher = weaker reporter binding
- MEASUREMENT_CONTEXT: Eterna round: R95; input ligand: none
Tick y if apparent KD of MS2 coat protein is 90 nM or greater. Tick n if apparent KD of MS2 coat protein is less than 90 nM.

Quick check, apparent KD of MS2 coat protein >= 90 nM? UAUUAAACAUAGGAUAUCGAAAAUAUCAUUUAACGAGAAGGAUGAACAUGAGGAUCACCCAUGUGGUAUCAUGG [Mat - Exclusion 6 - JL Mod - D15] (puzzle: Exclusion 6)
y

What about this sequence? AAGAGUGCAGGAUAUACGUGAUGGAGUAGGAUGAGAGAAGGACAUGAGGAUCACCCAUGUAGAAGGGCAGAGAG [JR_Exclu2_Sub059] (puzzle: Exclusion 2)
n

What about this sequence? ACAAGAAUUUUGCUCGUAAAGUAGAAACGCGAGAGCGGGACAUGAGGAUCACCCAUGUAAAGGCAGUUGGUGGAGAU [JR_SV3TOV2_Sub028] (puzzle: Sensor v3, turn-off variant 2)
n

What about this sequence? GUAGAGUAAGGAUAUUGAGAAUAGGAUAGAAUGGUUAGAAUCAAGAAGGUACAUGAGGAUCACCCAUGUAAUGU [Excluse me!!!! 6 - Jieux - Exclusion 4] (puzzle: Exclusion 4)
n

What about this sequence? UGAGAACAUGAGGAUCACCCAUGUAAGGAUAUGCGAAGAGUUUGGAGAGGUUGAGGAGGCAGAAGGUACGGGAG [JR_Exclu1_Sub045] (puzzle: Exclusion 1)
n

Now, please, on to the next sequence.
Quick check, apparent KD of MS2 coat protein >= 90 nM? GGUCUGCGAGGAUAUACAUGAGGAUCACCCAUGUGAGAGUUACUAGUGAGGUCGAUUGGUAGAAGGCGCGGACG [JL-ex3-2.04 salish99 mod] (puzzle: Exclusion 3)
y

---

Here the recorded apparent KD of MS2 coat protein is given for each entry.
- Tested on: MS2 coat protein
- ASSAY_DETAILS: apparent KD of MS2 coat protein; designed switch direction (-1 OFF switch, 1 ON switch): -1; higher = weaker reporter binding
- MEASUREMENT_CONTEXT: input ligand: none
Numeric only. Scale: nM

Here's what some known entries look like.
Param item = GACUGAGCAGGAUAUACAUGAGGAUCACCCAUGUUGGUUCAGCGACGAUAGUCGCAAUGUAGAAGGGCUCAGUC [E3/9-D2] (Eterna round: R97, puzzle: Exclusion 3) ; retrieve measured apparent KD of MS2 coat protein.
203

What about this sequence? CUUUCGUGAGGAUAUGUGGCUUCGAAAAUGAGAUCGAGGCUACAGAAGGCACAUGAGGAUCACCCAUGUUCCUC [salish99_ex4_r4_215] (Eterna round: R97, puzzle: Exclusion 4)
35.6

Next:
Param item = AGAAUGCGAGGAUAUACAGCAAGAUAGCAAAAGACCCUCCAACAUGAGGAUCACCCAUGUAGAAGGCGCAUUCA [Eternabot (Original) Solution 19] (Eterna round: R97, puzzle: Exclusion 2) ; retrieve measured apparent KD of MS2 coat protein.
109

---

- Test system: MS2 coat protein
- ASSAY_DETAILS: apparent KD of MS2 coat protein; higher = weaker reporter binding
- MEASUREMENT_CONTEXT: Eterna round: R107; input ligand: theophylline 20 uM
The class of a record is decided solely by its measured apparent KD of MS2 coat protein; consult 1 (below 30 nM), 2 (30 nM to below 100 nM), 3 (100 nM or more)

Solved entries (count: 5):
# bin lookup: classify GGUGGCGGGACUGAUACCAGCCACCACCGAUAGACCACAUGAGGAUCACCCAUGUUGGGUGGCCCUUGGCAGCAGUCUUGCUGCU [#1 Same State - Theophylline B Attempt #13 (HarryS)] by its apparent KD of MS2 coat protein
3

What about this sequence? UUUUUUAACUGAAGGAGCGUCACAUGAGGAUCACCCAUGUAUUAGAUGAGAAUGAUCUUGUGGCAGGUAGGUCGCAGAGGAAGGG [#30 Exclusion - Arginine B]
3

What about this sequence? CGAAUAUAGGCUACGUGUCAUUGAGGCGAUACCAGAUUAUGCCAGAUCCCUUGGCAGCGCCAAACAUGAGGAUCACCCAUGUUCA [theeternabot_exclusion_MS2_Theo_A_38]
1

What about this sequence? AGACGAGAAGAGGAUUACCCAUGUACAGAAGGAGCGUCGUUGACGACAGGUAGGUCGCUGAGAACAUGAGGAUCACCCAUGUUGA [Arg A Ex t1]
2

What about this sequence? UUAUUUAACGGAAGGAGCGCGGAAAUAAAAGUGGGUAAACAUGAGGAUCACCCAUGUAAACCGCAGGUAGGUCGCCGAUAUUUAU [AstrosEXyARgB#2]
2

Now, please, on to the next sequence.
# bin lookup: classify UGAUAUGUAGGAAGGAGCGCAUACUUCACAUGAGGAUCACCCAUGUCAAGACGUGAGUCAGUGCAGGUAGGUCGCCUAGUUAUGA [Same State - Arginine B (Freestyle 20)] by its apparent KD of MS2 coat protein
2

---

- Test system: K4 kissing-loop RNA reporter;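 note: bound reporter read as fluorescence of individual clusters on recovered sequencing chips by microscopy, with normalized cluster intensities fitted with a binding model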
- ASSAY_DETAILS: apparent KD of K4 kissing-loop reporter; higher = weaker reporter binding
- MEASUREMENT_CONTEXT: Eterna round: R107; input ligand: tryptophan 2.4 mM
Here the recorded apparent KD of K4 kissing-loop reporter is given for each entry.
Numeric only. Scale: nM

Param item = UGUACCGAAUCAGGAUAUGUCGUCGAAAGACGAAAUGGAGUGAUGUUCCUUAAACUGCGAAAGCAGACAGAAGGGAUUUGGUACU [FmnBS 29 A9+U77] ; retrieve measured apparent KD of K4 kissing-loop reporter.
385

What about this sequence? UGUCUGAUGGAAACAUCGGACUUUACUGAUACCAGUAUCGAUAGAUACCCUUGGCAGCAGAAUCAGUAAUAACGAGUGAUGUUCG [Ex Theophylline A K4 3]
310

Next:
Param item = AUGUAUGAAUUAGGAUAUCGUGAGCCUUGCAUAUAUAUGAUAAAUGGAUAUGUCGUAGUGAUGUUACGAGAAGGAGUGUGGAGUA [KL-XFMN-B4] ; retrieve measured apparent KD of K4 kissing-loop reporter.
39.1

---

Here the recorded apparent KD of MS2 coat protein is given for each entry.
- Test system: MS2 coat protein
- ASSAY_DETAILS: apparent KD of MS2 coat protein, switch OFF state (with FMN for OFF switches, without FMN for ON switches); designed switch direction (-1 OFF switch, 1 ON switch): 1; higher = weaker reporter binding
- MEASUREMENT_CONTEXT: FMN input: 0 or 200 uM; Eterna round: R93 (includes R88 designs)
Numeric only. Scale: nM

Param item = AAAAUACAUGAGGAUCACCCAUGUGAAAAUAUGGGAGGAUAUACAAAAACGAAAGUAAAAGUAGAAGGCCUAAAAA [SS! 1 MT 1] ; retrieve measured apparent KD of MS2 coat protein.
185

What about this sequence? AACUACAUUAUGAAGGAUAUCCACAUCAAGACAUGAGGAUCACCCAUGUAUACUUAGAUCAUACAGGAGAAGGUCAAGGGUGAAU [JR_SS002_Sub1207]
89.2

What about this sequence? GAGGACGUAGGAUAGGAUAUGUGAAUAAUUACAUGAGGAUCACCCAUGUCCAUUUAUAUGGGAACAUAGAAGGGUUUUCGUUAUC [SameState2 Malc#40]
387

What about this sequence? AAAUAACAUGCGCAGGAUAUGAGACCGAUAACAUGAGGAUCACCCAUGUUAAGGAAGAAAUAAAAUCAGAAGGGUGGGUGGACCU [Aatteri]
26.6

What about this sequence? GGGAGACAUGAGGAUCACCCAUGUGAGAAGAGGCGAGGAUAUCGAAAGAAAGAAGAGAAACGAGAAGGCGCGAGUA [salish99-SS1-050]
65.5

Next:
Param item = AAGAAACAUGAGGAUCACCCAUGUGAGAAUAUGGGAGGAUAUACAAGGACGUAAGUCAAGGUAGAAGGCCUAAGAA [Mat - Same State 1 - Meechl mod - D139] ; retrieve measured apparent KD of MS2 coat protein.
200

What about this sequence? AAAAAAAAUGUGUAGGAUAUCAGUAAAAAUACAUGAGGAUCACCCAUGUUCAAAAAAAAAAAAACUGAGAAGGACACGGAUGGUCC [Design 1]
42.6

What about this sequence? AAAGACAUGGUGCAGGAUAUAUUAAUAGUCACAUGAGGAUCACCCAUGUUCAGAUAUCUGAACGAGUAGAAGGGCGAUGAAAAAA [SameState2 Malc#5]
61.9

What about this sequence? UAUAGACAUGAGGAUCACCCAUGUAGAAUUAUGGGAGGAUAUACAAAGACGAGAGUCAGAGUAGAAGGCCUAGGAU [salish99-ss1-154]
63.7

What about this sequence? GAGAAACAUGAGGAUCACCCAUGUAGAGAUAUGGGAGGAUAUACAGAGACGAGAGUCAAAGUAGAAGGCCUAGAAG [77%, Mat - Mod of Eli - With 5 more G's]
46.4

What about this sequence? AAAUUACAUGAGGAUCACCCAUGUAGCGACGUGACAGGAUAUGUGGGUGAAAAUAGCAUGACAGAAGGGUCCCGUA [SameState1 Malc#40]
23.1

What about this sequence? AAUAAACAUGAGGAUCACCCAUGUGGUGGCCCAUGAGGAUAUCCAUGUACAUUGUACACAGGAGAAGGCAUAGCCA [Tioredes]
27
